- measurement notes: qHTS Assay for Inhibitors of Hepatitis C Virus (HCV)
- condition summary: Huh7.5.1 HCVcc-Cre infection, luciferase reporter, 44 h; series mostly up to 41.8 µM
Hit rate of the full screen: of about 340,000 compounds, about 12,000 (3.5%) were called active. About 18% were inconclusive and are not listed. The call rests on the fitted dose curve; in most records, active means well fitted inhibition curve with a large enough effect; inconclusive means small, poorly fitted or top-dose-only effect, or another doubt; inactive means no such curve, though single readings can be large or run the other way. The list comes from a sample in which actives are over-represented; it also holds close analogues and randomly drawn compounds.
Classes to choose from: active, inactive

Solved entries (count: 3):
* O=C(NCCCO)c1cc2c([nH]c3ccccc32)c(-c2ccc(F)cc2)n1 | active
* Cc1ccc(C(=O)Nc2ncccc2C)cc1S(=O)(=O)N1CCOCC1 | inactive
* O=C(NCC1CCCO1)c1cc(-c2ccccc2)nc2ccccc12 (centres undefined) | inactive

Then this compound:
Req: Any idea what this test logged for Cc1ccccc1CSCCNC(=O)c1ccc(Cl)c(S(=O)(=O)N2CCOCC2)c1 ?
Resp: active

----------
- measurement notes: qHTS Assay for Inhibitors of Hepatitis C Virus (HCV)
- condition summary: Huh7.5.1 HCVcc-Cre infection, luciferase reporter, 44 h; series mostly up to 41.8 µM
Screen size: about 340,000 compounds; about 12,000 (3.5%) were called active. Not shown: some 18% with an inconclusive outcome. Calls follow the shape of the dose curve; as a rule, active = well fitted inhibition curve with a large enough effect; inconclusive = small, poorly fitted or top-dose-only effect, or another doubt; inactive = no such curve, though single readings can be large or run the other way. This is one part of a sample in which actives are shown more often than they occur.
Classes to choose from: Yes for active, No for inactive

Solved entries (count: 5):
* O=C(/C=C/c1ccc([N+](=O)[O-])o1)NNC(=O)c1ccc(F)cc1 | Yes
* C#CCOCCOCCOCCNc1nc(N2CCN(C(=O)[C@H](CCCN=C(N)N)n3cc(C(N)[C@@H](C)CC)nn3)CC2)nc(N2CCN(C(=O)[C@H](CO)n3cc([C@@H](N)C(C)C)nn3)CC2)n1 (some centres undefined) | No
* Cc1cc2cc(CNC(=O)c3ccc(S(=O)(=O)N4CCOCC4)cc3)ccc2[nH]1 | No
* CC[C@]12c3[nH]c4cc(CCC(=O)N(C)C)ccc4c3CCN1C(=O)[C@@H](CC(=O)NCCCN(C)C)C[C@@H]2C(=O)N1CCN(C(=O)c2ccco2)CC1 | No
* COc1ccc(-c2cc(C(F)(F)F)nc(S(C)(=O)=O)n2)cc1OC | Yes

Req: Any idea what this test logged for COc1ccc(C(=O)Nc2cccc(/C=C(/CCC(=O)O)c3nc4ccccc4s3)c2)cc1 ?
Resp: No

Req: Any idea what this test logged for CC1CCCCC12NC(=O)N(CC(=O)Nc1ccc(S(=O)(=O)Nc3ncccn3)cc1)C2=O (centres undefined) ?
Resp: No

Req: Any idea what this test logged for COc1ccc(-c2cc(C(=O)NCCCN3CCCC3=O)c3ccccc3n2)cc1OC ?
Resp: No

Req: Any idea what this test logged for CCOC(=O)C/C(C)=N\Nc1ccc([N+](=O)[O-])cc1[N+](=O)[O-] ?
Resp: No

----------
- measurement notes: qHTS Assay for Inhibitors of Hepatitis C Virus (HCV); further: potency means the concentration at half of the fitted maximal effect
- condition summary: Huh7.5.1 HCVcc-Cre infection, luciferase reporter, 44 h; series mostly up to 41.8 µM
Among all 340,000 compounds or so, about 12,000 (3.5%) were called active. Roughly 18% stayed inconclusive and do not appear here. Many of the other results were omitted from the sample, so actives are more common in it than they were.
measurement name: Potency

- CCN1CCC(O)(/C=C/c2ccc(C)cc2)C(C(=O)/C=C/c2ccc(C)cc2)C1 (stereo not drawn): 14.1 µM (active)
- C=CCn1c(CSc2nc3ccccc3s2)nnc1SCC(=O)NCc1ccco1: inactive
- Cc1cccc(NC(=O)c2ccc([N+](=O)[O-])o2)c1: 3.55 µM (active)
- Cc1ccc(NC(=O)COC(=O)CN2CCCCCC2=O)c(C)c1: inactive

Req: Read off the recorded Potency for COc1ccccc1NC(=O)COC(=O)COc1ccccc1F
Resp: inactive

Req: Read off the recorded Potency for C=CC[C@H](CC(=O)OC(C)(C)C)C(=O)OC[C@H]1CCCN1C(=O)[C@H](CC=C)CC(=O)N(CCO)Cc1ccccc1
Resp: inactive

Req: Read off the recorded Potency for CCOC(=O)c1ccc(NC(=O)Cn2nnc(-c3ccc(C)cc3)n2)cc1
Resp: inactive

Req: Read off the recorded Potency for C[C@H]1COC(=O)[C@H](CC(=O)OC(C)(C)C)C/C=C\C[C@@H](CC(=O)N[C@H](CO)Cc2ccccc2)C(=O)N1
Resp: inactive

----------
- measurement notes: qHTS Assay for Inhibitors of Hepatitis C Virus (HCV)
- condition summary: Huh7.5.1 HCVcc-Cre infection, luciferase reporter, 44 h; series mostly up to 41.8 µM
In all, about 340,000 compounds went through this assay and about 12,000 (3.5%) were called active. Another 18% or so got no clear call; they are omitted. The call rests on the fitted dose curve; in most records, active means well fitted inhibition curve with a large enough effect; inconclusive means small, poorly fitted or top-dose-only effect, or another doubt; inactive means no such curve, though single readings can be large or run the other way. The entries come from a sample that favours actives as a whole.
Classes to choose from: True for active, False for inactive

• Nc1ccc2[nH]c(=S)sc2c1 = False
• CCCOc1ccc(C(=O)CCC(=O)OC(C)C(=O)Nc2ccc(NC(C)=O)cc2)cc1 (centres undefined) = False
• CN(C(=O)COC(=O)c1cc(-c2ccco2)nc2ccccc12)C1CCS(=O)(=O)C1 (centres undefined) = False

Req: Any idea what this test logged for Cc1cccc(N=C2NC(=O)/C(=C/c3cn(C)c4ccccc34)S2)c1 ?
Resp: True

Req: Any idea what this test logged for O=C(NN=Cc1ccc(N2CCOCC2)cc1)c1cc2ccccc2cc1O ?
Resp: False

Req: Any idea what this test logged for Cn1c(CCN2CCCC2)nc2cc(NS(=O)(=O)c3ccccc3)ccc21 ?
Resp: False

----------
- measurement notes: qHTS Assay for Inhibitors of Hepatitis C Virus (HCV)
- condition summary: Huh7.5.1 HCVcc-Cre infection, luciferase reporter, 44 h; series mostly up to 41.8 µM
The whole screen tested about 340,000 compounds, of which about 12,000 (3.5%) were called active. Roughly 18% stayed inconclusive and do not appear here. The call rests on the fitted dose curve; in most records, active means well fitted inhibition curve with a large enough effect; inconclusive means small, poorly fitted or top-dose-only effect, or another doubt; inactive means no such curve, though single readings can be large or run the other way. This excerpt belongs to a sample that is enriched for actives.
Classes to choose from: active, inactive

Solved entries (count: 5):
• COc1ccc(S(=O)(=O)N2CCCCC2)cc1NC(=O)C1CC(=O)N(c2ccc3c(c2)OCCO3)C1 (stereo not given) = inactive
• CC(=O)Nc1ccc(SC[C@H](Cc2ccccc2)N2CC[C@@H](C)CCC2=O)cc1 = inactive
• CS(=O)(=O)c1ccc(C(=O)NNC(=O)c2cccs2)cc1 = inactive
• O=C(NNS(=O)(=O)c1c(F)cc(F)c(Cl)c1F)C12CC3CC(CC(C3)C1)C2 = inactive
• COC(=O)c1ccc(NCc2cc(O)ccc2O)cc1 = active

Req: Any idea what this test logged for CC(=O)c1c(C)oc2ccc(NS(=O)(=O)c3ccc(C(=O)O)cc3)cc12 ?
Resp: inactive

Req: Any idea what this test logged for CC(=O)c1ccc(S(=O)(=O)Nc2ccc(-c3ccc4nncn4n3)cc2)cc1 ?
Resp: inactive

Req: Any idea what this test logged for O=C(CN1C(=O)NC2(CCCC2)C1=O)Nc1cc(C(F)(F)F)ccc1N1CCOCC1 ?
Resp: inactive

Req: Any idea what this test logged for NC(=O)C1(N2CCCC2)CCN(Cc2ccccc2)CC1 ?
Resp: inactive

Req: Any idea what this test logged for CSc1ccccc1NC(=O)c1cnc2sc(C)cn2c1=O ?
Resp: inactive

----------
- measurement notes: qHTS Assay for Inhibitors of Hepatitis C Virus (HCV)
- condition summary: Huh7.5.1 HCVcc-Cre infection, luciferase reporter, 44 h; series mostly up to 41.8 µM
Screen size: about 340,000 compounds; about 12,000 (3.5%) were called active. About 18% were inconclusive and are not listed. Calls follow the shape of the dose curve; as a rule, active = well fitted inhibition curve with a large enough effect; inconclusive = small, poorly fitted or top-dose-only effect, or another doubt; inactive = no such curve, though single readings can be large or run the other way. Only a selection was taken, and actives are over-represented in it overall.
Classes to choose from: label 1 (active), label 0 (inactive)

Solved entries (count: 8):
• O=C(COC(=O)CCOc1ccccc1)Nc1cc(S(=O)(=O)N2CCCCC2)ccc1Cl = label 0
• CN(CC(=O)Nc1ccc(C(N)=O)cc1)S(=O)(=O)c1ccc2c(c1)OCCO2 = label 0
• COc1ccc(C(=O)N(C)Cc2ccc(OC)c(OC)c2OC)cc1S(=O)(=O)N1CCOCC1 = label 0
• CCOc1ccccc1/C=N/Nc1nc2ccccc2o1 = label 1
• COc1ccc(CCN2CC(C(=O)OCC(=O)NCc3ccccc3Cl)CC2=O)cc1OC (centres undefined) = label 0
• CC1(C)CC[C@@]2(C(=O)O)C(C1)C1=CCC3[C@@]4(C)CC[C@H](O)C(C)(C)C4CC[C@@]3(C)[C@]1(C)C[C@H]2O (some centres undefined) = label 0
• COc1cc(C(=O)CCc2ccc3c(c2)OCO3)cc(OC)c1OC = label 1
• CCC1(c2ccccc2)NC(=O)N(CC(=O)Nc2ccccc2C(=O)NC2CCCC2)C1=O (centres undefined) = label 0

Req: Any idea what this test logged for COCCN(CCOC)C(=S)Nc1ccccc1Cl ?
Resp: label 0

Req: Any idea what this test logged for O=C(Nc1ccccc1Cl)Nn1cnnc1 ?
Resp: label 0

Req: Any idea what this test logged for COc1ccc(/C=N/Nc2nc3ccccc3o2)cc1OC ?
Resp: label 0

Req: Any idea what this test logged for CS(=O)(=O)c1ccc(Cl)c(NC(=O)COC(=O)c2cccc(S(=O)(=O)N3CCCC3)c2)c1 ?
Resp: label 0

Req: Any idea what this test logged for CCOc1ccc(S(=O)(=O)N2CCCCC2)cc1NC(=O)CN1CCCC1c1cccs1 (centres undefined) ?
Resp: label 1

Req: Any idea what this test logged for Cc1ccc(S(=O)(=O)N2CCCCC2)cc1NC(=O)[C@@H]1CCCN1C(=O)c1cccs1 ?
Resp: label 0

FYI, the data here is from PubChem BioAssay AID651820.
